Where do the numbers come from? From ChEMBL document CHEMBL1126276.

Test system: Plasmodium berghei
Experiment: Antimalarial activity in Plasmodium berghei infected mice (Mus musculus) after subcutaneous 640 mg/kg dose
Assay type: functional
Quick rule for you: No. of cured mice at 3 or higher means YES, lower means NO.

Field: example entries. Status: answers known.
>>> classification("CN(C)CCC/N=C1\\CC(c2ccc(C(F)(F)F)cc2)Cc2nc3ccc([N+](=O)[O-])cc3c(O)c21 (centres undefined)")
"NO"
>>> classification("CC1C(=O)c2c(nc3ccc(Cl)cc3c2O)CC1c1ccc(Cl)cc1Cl (centres undefined)")
"YES"
>>> classification("CCN(CC)CCCC(C)/N=C1\\CC(c2ccc(C(F)(F)F)cc2)Cc2nc3ccc(Cl)cc3c(O)c21 (centres undefined)")
"NO"
>>> classification("COc1ccc2nc3c(c(O)c2c1)/C(=N/CCCN(C)C)CC(c1ccc(C(F)(F)F)cc1)C3 (centres undefined)")
"YES"
>>> classification("CN(C)CCC/N=C1\\CC(c2ccc(C(F)(F)F)cc2)Cc2nc3ccc(I)cc3c(O)c21 (centres undefined)")
"NO"

Q) Test whether the compound CCCCN(CCCC)CC/N=C1\CC(c2cccc(C(F)(F)F)c2)Cc2c1c(=O)c1cc(Cl)ccc1n2O (centres undefined) records No. of cured mice of 3 or higher.
A) YES

Q) Test whether the compound CC1C(=O)c2c(nc3ccc(Cl)cc3c2O)CC1c1ccc(C(F)(F)F)cc1 (centres undefined) records No. of cured mice of 3 or higher.
A) YES

Q) Test whether the compound CCN(CC)CCCC/N=C1\CC(c2ccc(Cl)cc2Cl)Cc2nc3ccc(Cl)cc3c(O)c21 (centres undefined) records No. of cured mice of 3 or higher.
A) YES

Q) Test whether the compound CN(C)CCC/N=C1\CC(c2ccc([N+](=O)[O-])cc2)Cc2nc3ccc(Cl)cc3c(O)c21 (centres undefined) records No. of cured mice of 3 or higher.
A) NO

Q) Test whether the compound CN(C)CCC/N=C1\CC(c2ccccc2)Cc2c1c(=O)c1cc(Cl)ccc1n2O (centres undefined) records No. of cured mice of 3 or higher.
A) YES

Q) Test whether the compound CCN(CC)CCCC/N=C1\CC(c2ccc(C(F)(F)F)cc2)Cc2nc3ccc(Cl)cc3c(O)c21 (centres undefined) records No. of cured mice of 3 or higher.
A) YES

====

Reported No. of cured mice values follow for various molecules
Test system: Plasmodium berghei
Assay: Antimalarial activity in Plasmodium berghei infected mice (Mus musculus) after subcutaneous 640 mg/kg dose
Assay type: functional
# answer = number (no unit)

As a guide, the following entries are already answered.
>>> experimental_value("O=C1CC(c2ccc(C(F)(F)F)cc2)Cc2nc3ccc(Cl)cc3c(O)c21 (centres undefined)")
5
>>> experimental_value("CC1C(=O)c2c(n(O)c3ccc(Cl)cc3c2=O)CC1c1ccc(C(F)(F)F)cc1 (centres undefined)")
5
>>> experimental_value("N=C1CC(c2ccc(C(F)(F)F)cc2)Cc2nc3ccc(Cl)cc3c(O)c21 (centres undefined)")
5
>>> experimental_value("CCCC/N=C1\\CC(c2ccc(C(F)(F)F)cc2)Cc2nc3ccc(Cl)cc3c(O)c21 (centres undefined)")
5
>>> experimental_value("C=CCNCC/N=C1\\CC(c2cccc(C(F)(F)F)c2)Cc2c1c(=O)c1cc(Cl)ccc1n2O (centres undefined)")
5

Q) Answer with the recorded No. of cured mice of O=C1CC(c2ccc(C(F)(F)F)cc2)Cc2nc3ccc(F)cc3c(O)c21 (centres undefined) only.
A) 5

Q) Answer with the recorded No. of cured mice of Cc1ccc(C2CC(=O)c3c(nc4ccc(Cl)cc4c3O)C2)cc1 (centres undefined) only.
A) 2

Q) Answer with the recorded No. of cured mice of O=c1c2c(n(O)c3ccc(Cl)cc13)CC(c1ccc(C(F)(F)F)cc1)C/C2=N\CCCN1CCCC1 (centres undefined) only.
A) 1

Q) Answer with the recorded No. of cured mice of CSc1ccc(C2C/C(=N\CCCN(C)C)c3c(nc4ccc(Cl)cc4c3O)C2)cc1 (centres undefined) only.
A) 4

====

Test system: Plasmodium berghei
Assay: Antimalarial activity Plasmodium berghei infected mice (Mus musculus) after 640 mg/kg subcutaneous dose
Type: functional
VALUE_KIND: Delta mean survival time

>>> experimental_value("CCN(CC)Cc1cccc(/N=C2\\CC(c3ccc(Cl)c(Cl)c3)Cc3c2c(=O)c2cc(Cl)ccc2n3O)c1 (centres undefined)")
42.6

Q) Answer with the recorded Delta mean survival time of COc1ccc(C2CC(=O)c3c(n(O)c4ccc(Cl)cc4c3=O)C2)cc1 (centres undefined) only.
A) 5.7

Q) Answer with the recorded Delta mean survival time of CCN(CC)CCOc1ccc(C2CC(=O)c3c(n([O-])c4ccc(Cl)cc4c3=O)C2)cc1.[Na+] (centres undefined) only.
A) 5.3

Q) Answer with the recorded Delta mean survival time of CC(C)C1CC(=O)c2c(n(C)c3ccccc3c2=O)C1 (centres undefined) only.
A) 0.5

Q) Answer with the recorded Delta mean survival time of O=C1CC(c2ccccc2C(F)(F)F)Cc2c1c(=O)c1cc(Cl)ccc1n2O (centres undefined) only.
A) 8.3

====

Tested on: Plasmodium berghei
Assay: Antimalarial activity in Plasmodium berghei infected mice (Mus musculus) after 80 mg/kg subcutaneous dose
Format: functional
VALUE_KIND: Delta mean survival time

Q) Determine reported Delta mean survival time for CC1C(=O)c2c(nc3ccc(Cl)cc3c2O)CC1c1ccc(C(F)(F)F)cc1 (stereo unspecified) ; test system: Plasmodium berghei.
A) 7.5

Q) Determine reported Delta mean survival time for CC1C(=O)c2c(nc3ccc(Cl)cc3c2O)CC1c1ccc(Cl)cc1Cl (stereo unspecified) ; test system: Plasmodium berghei.
A) 1.18

Q) Determine reported Delta mean survival time for CCCCN(CCCC)CC/N=C1\CC(c2cccc(C(F)(F)F)c2)Cc2c1c(=O)c1cc(Cl)ccc1n2O (stereo unspecified) ; test system: Plasmodium berghei.
A) 7

Q) Determine reported Delta mean survival time for CCCCCCC/N=C1\CC(c2cccc(C(F)(F)F)c2)Cc2c1c(=O)c1cc(Cl)ccc1n2O (stereo unspecified) ; test system: Plasmodium berghei.
A) 2.8

Q) Determine reported Delta mean survival time for CN(C)CCC/N=C1\CC(c2cccc(C(F)(F)F)c2)Cc2nc3ccc(Cl)cc3c(O)c21 (stereo unspecified) ; test system: Plasmodium berghei.
A) 14.6

Q) Determine reported Delta mean survival time for Cc1ccc(C2C/C(=N\CCCN(C)C)c3c(n(O)c4ccc(Cl)cc4c3=O)C2)cc1 (stereo unspecified) ; test system: Plasmodium berghei.
A) 1.8

Q) Determine reported Delta mean survival time for CN(C)CCC/N=C1\CC(c2ccc([N+](=O)[O-])cc2)Cc2nc3ccc(Cl)cc3c(O)c21 (stereo unspecified) ; test system: Plasmodium berghei.
A) 3

Q) Determine reported Delta mean survival time for CC1/C(=N\CCCN(C)C)c2c(n(O)c3ccc(Cl)cc3c2=O)CC1c1ccc(Cl)cc1Cl (stereo unspecified) ; test system: Plasmodium berghei.
A) 16.8

Q) Determine reported Delta mean survival time for O=c1c2c(n(O)c3ccc(Cl)cc13)CC(c1cccc(C(F)(F)F)c1)C/C2=N\CCCCN1CCCC1 (stereo unspecified) ; test system: Plasmodium berghei.
A) 3.7

Q) Determine reported Delta mean survival time for CCCC/N=C1\CC(c2ccc(Cl)c(Cl)c2)Cc2nc3ccc(Cl)cc3c(O)c21 (stereo unspecified) ; test system: Plasmodium berghei.
A) 1.5

Q) Determine reported Delta mean survival time for COc1cc(C2CC(=O)c3c(n(O)c4ccc(Cl)cc4c3=O)C2)cc(OC)c1OC (stereo unspecified) ; test system: Plasmodium berghei.
A) 1.3

Q) Determine reported Delta mean survival time for CCN(CC)CCO/N=C1\CC(c2ccc(Cl)c(Cl)c2)Cc2c1c(=O)c1cc(Cl)ccc1n2O (stereo unspecified) ; test system: Plasmodium berghei.
A) 0.9

Q) Determine reported Delta mean survival time for O=C1CC(c2c(Cl)cccc2Cl)Cc2c1c(=O)c1cc(Cl)ccc1n2O (stereo unspecified) ; test system: Plasmodium berghei.
A) 5.1

Q) Determine reported Delta mean survival time for CCN(CC)CC/N=C1\CC(c2ccc(Cl)c(Cl)c2)Cc2c1c(=O)c1cc(Cl)ccc1n2O (stereo unspecified) ; test system: Plasmodium berghei.
A) 12.7

Q) Determine reported Delta mean survival time for CN(C)CCC/N=C1\CC(c2ccc(N(C)C)cc2)Cc2c1c(=O)c1cc(Cl)ccc1n2O (stereo unspecified) ; test system: Plasmodium berghei.
A) 0.9

Q) Determine reported Delta mean survival time for O=C1CC(c2ccc(C(F)(F)F)cc2)Cc2nc3ccc(Br)cc3c(O)c21 (stereo unspecified) ; test system: Plasmodium berghei.
A) 3

Q) Determine reported Delta mean survival time for COc1ccc2nc3c(c(O)c2c1)/C(=N/CCCN(C)C)CC(c1ccc(C(F)(F)F)cc1)C3 (stereo unspecified) ; test system: Plasmodium berghei.
A) 6.1

Q) Determine reported Delta mean survival time for C/N=C1\CC(c2ccc(Cl)c(Cl)c2)Cc2c1c(=O)c1cc(Cl)ccc1n2O (stereo unspecified) ; test system: Plasmodium berghei.
A) 3.3

Q) Determine reported Delta mean survival time for O=C1CC(c2ccc(Cl)c(Cl)c2)Cc2c1c(=O)c1ccccc1n2O (stereo unspecified) ; test system: Plasmodium berghei.
A) 3.1
